# fold induction at 0.3 µM per record follows
# Tested on: primary human total T-cells
# Experiment notes: T-cell activation, IL-2 secretion, Biological Example 2
# Format: cell-based
# Assay context: anti-CD3 and anti-CD28 co-stimulation, 48 hours, 0.3 μM inhibitor, fold change over baseline
Parameter measured: fold induction at 0.3 µM

Compound | Parameter measured | Result
CC1CCN(Cc2cc3c(c(C(F)(F)F)c2)CN(c2cccc([C@]4(Cc5nncn5C)C[C@@H](C#N)C4)c2)C3=O)CC(C)O1 (stereo partly drawn) [Compound 34] | fold induction at 0.3 µM | ≤ 15
Cn1cnnc1C[C@]1(c2cccc(N3Cc4c(cc(CN5CCc6ncccc6C5)cc4C(F)(F)F)C3=O)c2)C[C@H](C#N)C1 [Compound 28] | fold induction at 0.3 µM | ≤ 15
Cn1cnnc1C[C@]1(c2cccc(N3Cc4c(cc(CN5CCOCC6(CC6)C5)cc4C(F)(F)F)C3=O)c2)C[C@H](C#N)C1 [Compound 30] | fold induction at 0.3 µM | ≤ 15

----------
Listed next: entries and their corresponding IC50.
# Experimental system: Cbl-b (Homo sapiens (Human), UniProt Q13191)
# Sequence (Q13191 36-427): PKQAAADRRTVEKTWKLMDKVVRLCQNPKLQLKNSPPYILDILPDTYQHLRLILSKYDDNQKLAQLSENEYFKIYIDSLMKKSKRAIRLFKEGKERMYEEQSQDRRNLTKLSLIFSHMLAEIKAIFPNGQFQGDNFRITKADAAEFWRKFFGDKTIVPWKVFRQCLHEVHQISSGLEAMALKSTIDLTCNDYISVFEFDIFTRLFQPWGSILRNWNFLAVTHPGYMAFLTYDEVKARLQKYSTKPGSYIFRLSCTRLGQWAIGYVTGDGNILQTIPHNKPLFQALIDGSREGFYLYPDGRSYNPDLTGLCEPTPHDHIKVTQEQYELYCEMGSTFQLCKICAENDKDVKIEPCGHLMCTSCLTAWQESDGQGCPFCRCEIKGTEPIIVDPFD
# Experiment notes: Cbl-b displacement assay (Cbl-b inhibition assay), Biological Example 1
# Format: binding
# Assay context: read-out: IC50 values in the Cbl-b inhibition assay of Biological Example 1

Compound | IC50
Cn1cnnc1C[C@]1(c2cccc(N3Cc4c(cc(CN5CC6CCC(F)(F)C6C5)cc4C(F)(F)F)C3=O)c2)C[C@H](C#N)C1 (stereo partly drawn) | 2 to 5 nM
Cn1cnnc1C[C@]1(c2cccc(N3Cc4c(cc(CNC5CCC(C)(C)C5)cc4C(F)(F)F)C3=O)c2)C[C@H](C#N)C1 (stereo partly drawn) | < 1 nM
Cn1cnnc1C[C@]1(c2cccc(N3Cc4c(cc(CN5CCC[C@H](C(F)(F)F)C5)nc4C4CC4)C3=O)c2)C[C@H](C#N)C1 | < 1 nM
COCC1CCCCN(Cc2cc3c(c(C(F)(F)F)c2)CN(c2cccc([C@]4(Cc5nncn5C)C[C@@H](C#N)C4)c2)C3=O)C1 (stereo partly drawn) | 2 to 5 nM
Cn1cnnc1C[C@]1(c2cccc(N3Cc4c(cc(CN5CCC6(CC6)C5)cc4C(F)(F)F)C3=O)c2)C[C@H](C#N)C1 | 1 to 2 nM
C[C@@H]1CN(Cc2cc3c(c(C(F)(F)F)c2)CN(c2cccc([C@]4(Cc5nncn5C)C[C@](C)(C#N)C4)c2)C3=O)CCO1 | ≥ 20 nM

----------
Consider the following compounds and their measured IC50 readings.
# Experimental system: Cbl-b (Homo sapiens (Human))
# Experiment notes: Cbl-b displacement assay (Cbl-b inhibition assay), Biological Example 1
# Assay type: binding
# Assay context: 0.125 nM Cbl-b final concentration (Low); read-out: Cbl-b activity IC50 (Low)
Parameter measured: IC50

Compound | Result
Cn1cnnc1C[C@]1(c2cccc(N3Cc4c(cc(CNC5CCC(F)(F)C5)nc4C4CC4)C3=O)c2)C[C@H](C#N)C1 (stereo partly drawn) [Compound 39] | 1 to 2 nM
C[C@@H]1CN(C(C)(C)c2cc3c(c(C(F)(F)F)c2)CN(c2cccc([C@]4(Cc5nncn5C)C[C@@H](C#N)C4)c2)C3=O)CCO1 [Compound 58] | 2 to 5 nM
Cn1cnnc1C[C@]1(c2cccc(N3Cc4c(cc(CN5CCc6ncccc6C5)cc4C(F)(F)F)C3=O)c2)C[C@H](C#N)C1 [Compound 28] | 2 to 5 nM
